We begin with a simple list: items and their reported APOE RNA (% control) Cortex.
# System: human APOE RNA
# Test Summary: Activity in APOE C57BL/6NTac-Apoeem7250 knock-in mice, single ICV bolus, 20 weeks (Example 13)
# Assay type: in vivo
# Condition Label: cortex; single ICV bolus 300 μg; 20 weeks post treatment; normalized to mouse Ppia
Strand notation (5' to 3'): a small letter for the sugar, then the base; units joined by * are phosphorothioate-linked, units joined directly phosphodiester-linked; [ ] holds rarer units or linkages, { } end groups; capitals alone tell only the bases. [ms] = mesyl phosphoramidate linkage; e = 2'-O-(2-methoxyethyl) (MOE); k = constrained ethyl (cEt); [5mC] = 5-methylcytosine; d = 2'-deoxy (DNA)
The reply should contain only the number, in % control.

Below, each entry is followed by its recorded APOE RNA (% control) Cortex result.
# Substance, Unit Spec, Recorded Measurement
rows = [
    ("1785600 (k[5mC]*kT*kT*dG[ms]dG[ms]dT[ms]dG*dA*dA*dT*d[5mC]*dT[ms]dT[ms]dT[ms]dA*dT*kT*kA*dA[ms]kA; antisense) [Compound 1785600]", "% control", 60),
    ("1736524: 6-10-4 MOE gapmer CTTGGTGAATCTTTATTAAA, linkages sssooozzssssssssoss (e[5mC]*eT*eT*eGeGeTdG[ms]dA[ms]dA*dT*d[5mC]*dT*dT*dT*dA*dT*eTeA*eA*eA) [compound 1736524]", "% control", 67),
]

(Q) Test system human APOE RNA; read-out APOE RNA (% control) Cortex; what value for 1757582 (eT*eTeGkGkT*dG*dA*dA*dT*d[5mC]*dT*dT*dT*dA*dT*eTeAeA*eA*e[5mC]; antisense) [Compound 1757582] ?
(A) 62
